B1: Transcriptional repressor p66-beta, residues 415 to 455; numbered along this chain, Q8WXI9 (parent)
chain: VEPFVCAQCRTDFTPHWKQEKNGKILCEQCMTSNQKKALKA

# Variants of: B1
# TEST NAME: abundance fitness (aPCA) (normalised: wild type 0, dead -1); higher = more abundant; growth selection in yeast, the domain comes from the species named
# RECORDED CONDITIONS: Homo sapiens
READOUT KIND: abundance fitness

Some variants with recorded abundance fitness:
K18G    0.098
N34A    -0.076
W17H    0.009
E28Y    -0.16
K18I    -0.295

Input: Which abundance fitness value is on record for Q35E ?
Output: 0.025

Input: Continue with E2P
Output: -0.29

Input: Try this variant too: L39A
Output: -0.083
